- System: CAKI-1
- method: NCI-60 one-dose screen
- Type: cell-based
- particulars: Homo sapiens; CAKI-1, Renal Cancer panel; single dose 10^−5 M; read-out: Growth inhibition %
measured-property: inhibition at 10 µM (%)
Respond numerically; units are % and should not be typed.

Which inhibition at 10 µM reading was recorded for the compound COc1ccc(CNc2c3ccccc3nc3ccccc23)cc1F ?
78.7

Which measured inhibition at 10 µM value corresponds to Cc1ccc2nc3ccccc3c(NCc3ccccc3)c2c1 ?
64.5

Bench note: what inhibition at 10 µM did COc1ccc(CNc2c3ccccc3nc3ccccc23)cc1OC show?
89.5

// query inhibition at 10 µM value for entry Cc1ccccc1CNc1c2ccccc2nc2ccccc12
74.9

====

- System: CAKI-1
- method: NCI-60 one-dose screen
- Format: cell-based
- particulars: Homo sapiens; CAKI-1, Renal Cancer panel; single dose 10^−5 M; read-out: Growth inhibition %
Can you tell me inhibition at 10 µM for the items I'm about to list?
Quick note: give the figure in %, leave out the unit.

Which inhibition at 10 µM value belongs to COc1ccc(CNc2c3ccccc3nc3ccccc23)c(OC)c1 ?
63.8

Query (molecule): c1ccc(CCNc2c3ccccc3nc3ccccc23)cc1 ; field requested: inhibition at 10 µM
69.7

Requested read-out: inhibition at 10 µM. Entry: Fc1ccc(CNc2c3ccccc3nc3ccccc23)c(F)c1
64.7

Requested field: inhibition at 10 µM. Item: COc1ccc2nc3ccccc3c(NCc3ccc(C)cc3)c2c1
73.8

I'd like to know its inhibition at 10 µM. The molecule in question is COc1ccccc1CNc1c2ccccc2nc2ccccc12
54.3

Which measured inhibition at 10 µM value corresponds to c1csc(-c2ccc(CNc3c4ccccc4nc4ccccc34)cc2)c1 ?
64.5

Given the entry Fc1cccc(CNc2c3ccccc3nc3ccccc23)c1F , report its measured inhibition at 10 µM.
54.3

For Fc1ccc(CNc2c3ccccc3nc3ccccc23)cc1F , what is its reported inhibition at 10 µM?
74.7

I have this molecule here, Cc1ccc(CNc2c3ccccc3nc3ccccc23)cc1 , and I need its recorded inhibition at 10 µM.
81.4

Given Fc1ccc(CNc2c3ccccc3nc3ccccc23)cc1 , state its recorded inhibition at 10 µM.
74.5

Please report the recorded inhibition at 10 µM for Clc1cccc(CNc2c3ccccc3nc3ccccc23)c1 .
71.8

Entry COc1ccc2nc3ccccc3c(NCc3ccc(Cl)cc3)c2c1 : reported inhibition at 10 µM = ?
78.6

Dear colleague, I am looking for the recorded inhibition at 10 µM of the following molecule: COc1ccc(CNc2c3ccccc3nc3ccc(OC)cc23)cc1
80.1

Look up inhibition at 10 µM: Cc1ccc2nc3ccccc3c(NCc3ccc(Cl)cc3)c2c1
54.3

Bench note: what inhibition at 10 µM did Clc1ccc(CNc2c3ccccc3nc3ccccc23)cc1 show?
58.6

Any idea what its inhibition at 10 µM is? The molecule is c1ccc(CNc2c3ccccc3nc3ccccc23)cc1
66.9

====

- System: CCRF-CEM
- method: NCI-60 one-dose screen
- Assay type: cell-based
- particulars: Homo sapiens, Leukemia panel, single dose 10^−5 M, read-out: Growth inhibition %
Binary call on inhibition at 10 µM: Fulfilled from 60% upward, Not fulfilled beneath that.

// inclusive: inhibition at 10 µM at least 60%? input: Fc1ccccc1CNc1c2ccccc2nc2ccccc12
Not fulfilled

Reported inhibition at 10 µM at or above 60%? COc1ccc(CNc2c3ccccc3nc3ccc(OC)cc23)cc1
Fulfilled

Has Fc1ccc(CNc2c3ccccc3nc3ccccc23)cc1 a recorded inhibition at 10 µM greater than or equal to 60%?
Fulfilled

Determine whether this molecule has inhibition at 10 µM no lower than 60%: COc1ccc2nc3ccccc3c(NCc3ccc(Cl)cc3)c2c1
Fulfilled

I'd appreciate it if you could say whether Clc1ccc(CNc2c3ccccc3nc3ccccc23)cc1 has inhibition at 10 µM at least equal to 60%.
Fulfilled

Does the molecule Fc1ccc(CNc2c3ccccc3nc3ccccc23)c(F)c1 have recorded inhibition at 10 µM that is 60% or more?
Not fulfilled

====

- Tested on: NCI-H226
- method: NCI-60 one-dose screen
- Assay type: cell-based
- particulars: Homo sapiens; NCI-H226, Non-small cell lung panel; single dose 10^−5 M; read-out: Growth inhibition %
measured-property: inhibition at 10 µM (%)
Reply with just the number (in %).

What value of inhibition at 10 µM has been recorded for this entry: COc1ccc(CNc2c3ccccc3nc3ccccc23)c(OC)c1
53.7

Returns the measured inhibition at 10 µM for the input compound. Input: Clc1cccc(CNc2c3ccccc3nc3ccccc23)c1
52

I would be grateful if you could share the reported inhibition at 10 µM for COc1ccc(CNc2c3ccccc3nc3ccc(OC)cc23)cc1 .
66.2

inhibition at 10 µM for COc1cccc(CNc2c3ccccc3nc3ccccc23)c1OC ?
48.4

Data request, read-out inhibition at 10 µM, for c1csc(-c2ccc(CNc3c4ccccc4nc4ccccc34)cc2)c1
31

Quick check: inhibition at 10 µM of Cc1ccc(CNc2c3ccccc3nc3ccccc23)cc1 ?
58.5

For the compound shown here, Clc1ccc(CNc2c3ccccc3nc3ccccc23)cc1 , give the reported inhibition at 10 µM.
24.5

====

- Test system: IGROV1
- method: NCI-60 one-dose screen
- Type: cell-based
- particulars: Homo sapiens, IGROV-1; IGROV1, Ovarian Cancer panel; single dose 10^−5 M; read-out: Growth inhibition %
Would you please tag the item t when its inhibition at 10 µM is 80% or above, and f when it is below?

Does inhibition at 10 µM meet or surpass 80% for COc1ccc2nc3ccccc3c(NCc3ccccc3)c2c1 ?
t

Would you say COc1ccc2nc3ccccc3c(NCc3ccc(F)cc3)c2c1 shows inhibition at 10 µM at minimum 80%?
t

Dear colleague, could you confirm whether c1ccc(CCNc2c3ccccc3nc3ccccc23)cc1 has inhibition at 10 µM at or above 80%?
f

State whether the measured inhibition at 10 µM reaches 80%, counting equality as reaching it, for COc1ccc(CNc2c3ccccc3nc3ccc(OC)cc23)cc1
t

Evaluate COc1ccc2nc3ccccc3c(NCc3ccc(Cl)cc3)c2c1 : inhibition at 10 µM at minimum 80%?
t

Given the entry Fc1cccc(CNc2c3ccccc3nc3ccccc23)c1 , answer whether its inhibition at 10 µM meets or surpasses 80%.
f

====

- Test system: NCI-H226
- method: NCI-60 one-dose screen
- Assay type: cell-based
- particulars: Homo sapiens; NCI-H226, Non-small cell lung panel; single dose 10^−5 M; read-out: Growth inhibition %
measured-property: inhibition at 10 µM
Your answer should be a number followed by the unit of measure.

For the compound Fc1ccc(CNc2c3ccccc3nc3ccccc23)cc1 , what inhibition at 10 µM is on record?
48.2%

Field request: inhibition at 10 µM | item: Fc1cccc(CNc2c3ccccc3nc3ccccc23)c1
49.4%

Entry c1ccc(CNc2c3ccccc3nc3ccccc23)cc1 has what inhibition at 10 µM?
48.3%

Can you look up the measured inhibition at 10 µM of c1coc(CNc2c3ccccc3nc3ccccc23)c1 for me?
37.1%

Param item = COc1ccc2nc3ccccc3c(NCc3ccc(C)cc3)c2c1 ; retrieve measured inhibition at 10 µM.
57.9%

Could you share which inhibition at 10 µM value was measured for Cc1ccc2nc3ccccc3c(NCc3ccc(Cl)cc3)c2c1 ?
27.7%

Consider the compound COc1ccc(CNc2c3ccccc3nc3ccccc23)cc1F and give its measured inhibition at 10 µM.
57%

// returns reported inhibition at 10 µM for input COc1cccc(CNc2c3ccccc3nc3ccccc23)c1
51.9%

// lookup inhibition at 10 µM for Fc1ccccc1CNc1c2ccccc2nc2ccccc12
43.6%

Look at this compound and give its reported inhibition at 10 µM. COc1ccc(CNc2c3ccccc3nc3ccccc23)cc1OC
72%

Which value of inhibition at 10 µM has been reported for COc1ccccc1CNc1c2ccccc2nc2ccccc12 in the records?
60.1%

Field request: inhibition at 10 µM | item: Cc1cccc(CNc2c3ccccc3nc3ccccc23)c1
59.4%

# inhibition at 10 µM lookup, item Clc1ccccc1CNc1c2ccccc2nc2ccccc12
61.1%

Quick one: inhibition at 10 µM for Fc1ccc(CNc2c3ccccc3nc3ccccc23)c(F)c1 ?
45.2%

Consider the compound shown here: Fc1cccc(CNc2c3ccccc3nc3ccccc23)c1F What is its recorded inhibition at 10 µM?
27.1%

====

- Test system: LOX IMVI
- method: NCI-60 one-dose screen
- Type: cell-based
- particulars: Homo sapiens, Melanoma panel, single dose 10^−5 M, read-out: Growth inhibition %
I would appreciate it if you labelled entries YES when inhibition at 10 µM is 90% or higher, otherwise NO.

Is inhibition at 10 µM for COc1cccc(CNc2c3ccccc3nc3ccccc23)c1OC at or above 90%?
NO

Dear colleague, could you confirm whether Clc1ccc(CNc2c3ccccc3nc3ccccc23)cc1 has inhibition at 10 µM at or above 90%?
NO

State whether the measured inhibition at 10 µM reaches 90%, counting equality as reaching it, for Clc1cccc(CNc2c3ccccc3nc3ccccc23)c1
YES

Decide: inhibition at 10 µM of COc1ccc2nc3ccccc3c(NCc3ccc(Cl)cc3)c2c1 >= 90%?
YES

Quick check, inhibition at 10 µM >= 90%? COc1ccc(CNc2c3ccccc3nc3ccccc23)cc1OC
YES

Hi team, for COc1ccc2nc3ccccc3c(NCc3ccc(C)cc3)c2c1 , is the recorded inhibition at 10 µM at or above 90%?
YES

Is reported inhibition at 10 µM greater than or equal to 90% here: c1csc(-c2ccc(CNc3c4ccccc4nc4ccccc34)cc2)c1
YES

For this molecule, is measured inhibition at 10 µM 90% or higher? COc1ccc(CNc2c3ccccc3nc3ccccc23)cc1F
YES

Has Fc1ccc(CNc2c3ccccc3nc3ccccc23)c(F)c1 a recorded inhibition at 10 µM greater than or equal to 90%?
NO

Could you tell me if the measured inhibition at 10 µM of c1coc(CNc2c3ccccc3nc3ccccc23)c1 reaches 90% or more?
NO
